Cited source for all entries: paper PMC6558985

Biological target: Dm-spastin Q488V (Drosophila melanogaster, UniProt Q8I0P1, DEL311-372/Q488V)
Sequence (Q8I0P1 with tags, fused parts or gaps DEL311-372/Q488V limits assumed): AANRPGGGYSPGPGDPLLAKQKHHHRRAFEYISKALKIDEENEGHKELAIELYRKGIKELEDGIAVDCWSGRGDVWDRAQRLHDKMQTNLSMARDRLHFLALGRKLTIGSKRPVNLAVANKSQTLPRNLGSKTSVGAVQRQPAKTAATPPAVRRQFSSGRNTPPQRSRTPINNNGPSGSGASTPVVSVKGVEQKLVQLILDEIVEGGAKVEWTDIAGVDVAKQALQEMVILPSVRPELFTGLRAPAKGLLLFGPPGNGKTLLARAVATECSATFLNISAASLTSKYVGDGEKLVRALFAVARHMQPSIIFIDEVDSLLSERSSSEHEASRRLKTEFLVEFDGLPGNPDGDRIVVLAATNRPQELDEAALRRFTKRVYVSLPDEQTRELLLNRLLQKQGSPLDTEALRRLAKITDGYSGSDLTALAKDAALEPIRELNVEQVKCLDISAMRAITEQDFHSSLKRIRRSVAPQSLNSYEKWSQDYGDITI
Assay: Steady-state ATPase activity, NADH-coupled assay, Dm-spastin Q488V
recorded-endpoint: IC50

Prompt line: Recorded IC50 for CN1CCN(c2nc(Nc3cc(-c4ccccc4)[nH]n3)c3ccccc3n2)CC1 [compound 4] , please?
Response line: ~12.5 µM

* * *

Biological target: Dm-spastin N527C (Drosophila melanogaster, UniProt Q8I0P1, DEL311-372/N527C)
Test: Steady-state ATPase activity, NADH-coupled assay, Dm-spastin N527C
recorded-endpoint: IC50
Write down the value, and be sure its unit follows.

Prompt line: Recorded IC50 for CN1CCN(c2nc(Nc3cc(-c4ccccc4)[nH]n3)c3ccccc3n2)CC1 , please?
Response line: 2900 nM

* * *

Biological target: Hs-spastin (Homo sapiens, UniProt Q9UBP0)
Sequence (Q9UBP0 229-616): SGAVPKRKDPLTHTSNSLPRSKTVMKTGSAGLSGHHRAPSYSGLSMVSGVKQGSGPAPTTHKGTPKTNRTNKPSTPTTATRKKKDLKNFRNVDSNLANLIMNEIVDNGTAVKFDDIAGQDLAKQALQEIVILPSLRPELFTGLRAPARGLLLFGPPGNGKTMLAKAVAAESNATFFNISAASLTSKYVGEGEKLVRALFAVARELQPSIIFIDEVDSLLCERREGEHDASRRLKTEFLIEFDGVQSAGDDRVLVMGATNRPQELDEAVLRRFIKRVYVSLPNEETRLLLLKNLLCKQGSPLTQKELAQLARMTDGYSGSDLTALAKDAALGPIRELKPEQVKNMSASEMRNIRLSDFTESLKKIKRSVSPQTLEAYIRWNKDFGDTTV
recorded-endpoint: pIC50
By convention, pIC50 is the negative base-10 log of a molar concentration.

Prompt line: Recorded pIC50 for C[C@@H]1CNCCN1c1nc(Nc2cc(C(C)(C)C)[nH]n2)c2cc[nH]c2n1 , please?
Response line: 6.88

* * *

Molecular target: Dm-spastin N527T (Drosophila melanogaster, UniProt Q8I0P1, DEL311-372/N527T)
Sequence (Q8I0P1 with tags, fused parts or gaps DEL311-372/N527T limits assumed): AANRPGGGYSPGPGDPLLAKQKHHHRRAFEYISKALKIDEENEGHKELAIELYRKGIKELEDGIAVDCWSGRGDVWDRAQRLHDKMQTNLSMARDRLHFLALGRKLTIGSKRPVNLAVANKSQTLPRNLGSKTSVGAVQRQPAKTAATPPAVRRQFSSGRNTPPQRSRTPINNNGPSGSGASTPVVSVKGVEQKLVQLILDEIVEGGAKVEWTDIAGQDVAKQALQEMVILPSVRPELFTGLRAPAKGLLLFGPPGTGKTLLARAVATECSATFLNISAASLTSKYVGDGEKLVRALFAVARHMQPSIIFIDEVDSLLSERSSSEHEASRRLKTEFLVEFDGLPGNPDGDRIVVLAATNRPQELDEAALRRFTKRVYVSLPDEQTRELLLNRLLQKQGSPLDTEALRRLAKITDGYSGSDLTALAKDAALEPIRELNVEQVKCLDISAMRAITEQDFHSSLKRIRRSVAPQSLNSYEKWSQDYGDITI
Experiment: Steady-state ATPase activity, NADH-coupled assay, Dm-spastin N527T
recorded-endpoint: IC50

Prompt line: // map CN1CCN(c2nc(Nc3cc(-c4ccccc4)[nH]n3)c3ccccc3n2)CC1 to recorded IC50 (system: Dm-spastin N527T (Drosophila melanogaster, UniProt Q8I0P1, DEL311-372/N527T))
Response line: > 30 µM

* * *

Biological target: Dm-spastin S689A (Drosophila melanogaster, UniProt Q8I0P1, DEL311-372/S689A)
Sequence (Q8I0P1 with tags, fused parts or gaps DEL311-372/S689A limits assumed): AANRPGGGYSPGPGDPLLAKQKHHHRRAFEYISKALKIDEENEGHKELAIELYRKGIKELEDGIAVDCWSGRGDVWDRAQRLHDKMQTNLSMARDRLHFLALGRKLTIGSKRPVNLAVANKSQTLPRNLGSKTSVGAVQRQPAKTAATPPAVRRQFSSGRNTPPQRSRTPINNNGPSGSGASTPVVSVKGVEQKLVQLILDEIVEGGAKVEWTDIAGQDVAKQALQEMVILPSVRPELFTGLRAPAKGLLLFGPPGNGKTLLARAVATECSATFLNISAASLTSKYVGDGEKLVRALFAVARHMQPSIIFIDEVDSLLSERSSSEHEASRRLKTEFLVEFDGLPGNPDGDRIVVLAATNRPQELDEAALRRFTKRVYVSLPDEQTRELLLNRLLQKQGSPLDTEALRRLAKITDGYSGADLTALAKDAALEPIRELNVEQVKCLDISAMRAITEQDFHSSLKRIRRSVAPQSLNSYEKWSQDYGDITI
Test: Steady-state ATPase activity, NADH-coupled assay, Dm-spastin S689A
recorded-endpoint: pIC50
By convention, pIC50 is the negative base-10 log of a molar concentration.

Prompt line: Recorded pIC50 for CN1CCN(c2nc(Nc3cc(-c4ccccc4)[nH]n3)c3ccccc3n2)CC1 , please?
Response line: 6.05
